Where these numbers come from: PubChem BioAssay (NCI)

- Tested on: OVCAR-3 ovarian
- MEASUREMENT_NOTES: NCI tumour cell line growth inhibition, 48 h

| MOLECULE | ASSAY_TARGET | TGI |
| --- | --- | --- |
| CC(C)(C(=O)NCC(F)(F)C(F)(F)F)C(=O)N[C@@H]1C(=O)Nc2ccccc2-c2ccccc21 | OVCAR-3 ovarian | > 100 µM |
| COc1ccccc1CNCCCCCNCCCCCCCCCCNCCCCCNCc1ccccc1OC | OVCAR-3 ovarian | > 100 µM |
| COc1ccc2c(c1OC)C(=O)OC2C1c2c(c(N)c3c(c2OC)OCO3)CCN1C (centres undefined) | OVCAR-3 ovarian | 34.6 µM |
| CCCCCCCCCCCCCCCC(=O)Nc1ccn(C2CC(OP(=O)(O)OCC3OC(n4cc(F)c(=O)[nH]c4=O)CC3OC(C)=O)C(CO)O2)c(=O)n1 (centres undefined) | OVCAR-3 ovarian | > 100 µM |
| COC(=O)C1(CCC(=O)N(C)c2ccccc2)NNC2C(=O)N(c3ccccc3)C(=O)C21 (centres undefined) | OVCAR-3 ovarian | > 10 µM |
| CCNC(=O)N1CCc2c(Cl)c3c(c(OC)c2[C@@H]1[C@H]1OCc2c1ccc(OC)c2OC)OCCO3 | OVCAR-3 ovarian | 5.37 µM |
| COc1ccc(-c2csc(=[N+]3CCCCC3)s2)cc1 | OVCAR-3 ovarian | 31.6 µM |
| O=C(O)CCC1(C(=O)O)CCC(=O)c2ccccc21 (centres undefined) | OVCAR-3 ovarian | > 100 µM |
| COC(=O)c1ccc(C2SC(C)C(=O)N2NC(=O)C(O)c2ccccc2)cc1 (centres undefined) | OVCAR-3 ovarian | > 100 µM |

====

- Test system: SF-295 CNS
- MEASUREMENT_NOTES: NCI tumour cell line growth inhibition, 48 h; in the data active = GI50 below about 0.43 µM; inactive = the rest
Where a SMILES comes first, the peptide text is derived from it.
Outcome codes: True = active, False = inactive

| COMPOUND | ASSAY_TARGET | ASSIGNED_CLASS |
| --- | --- | --- |
| O=c1cc(/C=C/c2ccc(O)c(O)c2)cc(/C=C/c2ccc(O)c(O)c2)o1 | SF-295 CNS | False |
| CCCCCCC(O)(c1ccc(F)cc1)C(CN1CCOCC1)c1ccccc1 (centres undefined) | SF-295 CNS | False |
| CCC(C)C1NC(=O)C(CCCCN)NC(=O)C(CCCCN)NC(=O)C(CC(C)C)NC(=O)C(CCCCN)NC(=O)C(C(C)CC)NC(=O)C(C(C)C)NC(=O)C(C(C)CC)NC(=O)C(CCCCN)NC(=O)C(CCCCN)NC(=O)C(C)NC(=O)C(CCCCN)NC(=O)C(CC(C)C)NC1=O (centres undefined) (cyclo(AKKIVIKLKKILK); configuration not given here) | SF-295 CNS | False |
| CCOC(=O)c1cc(C(=O)c2cc(OC)c(OC)c(OC)c2)n2nc(C)ccc12 | SF-295 CNS | True |
| O=C(Nc1ccccc1C(=O)N/N=C(\c1ccccc1)c1ccccn1)c1ccccc1 | SF-295 CNS | False |
| COc1ccc(C(O)c2cc3c(N)c(C(=O)Nc4ccccc4)sc3nc2C)cc1 (centres undefined) | SF-295 CNS | True |
| CCNCCNc1cc(-c2ccc(Cl)c(Cl)c2)c(C#N)c2nc3ccccc3n12 | SF-295 CNS | False |
| C#CCNCCCN1C(=O)c2ccc3c4c(ccc(c24)C1=O)C(=O)N(CCCNCC#C)C3=O | SF-295 CNS | True |
| O=C1NC(=NCc2c(Cl)cccc2Cl)S/C1=C\c1ccc2ncccc2c1 | SF-295 CNS | False |
| O=C(NNC(=O)c1ccccc1S)c1ccccc1S | SF-295 CNS | False |
| O=Cc1cn(Cc2ccccc2)c2ccccc12 | SF-295 CNS | False |
| C=C(C)[C@@H]1CC[C@]2(C(N)=O)CC[C@]3(C)[C@H](CC[C@@H]4[C@@]5(C)C/C(=C/c6cccnc6)C(=O)C(C)(C)[C@@H]5CC[C@]43C)[C@@H]12 | SF-295 CNS | False |
| O=C([CH-]C(=O)C(F)(F)F)c1ccccc1.O=C([CH-]C(=O)C(F)(F)F)c1ccccc1.[O]=[U+2]=[O] | SF-295 CNS | False |
| CCC(C)CN=C(N)c1ccc(N2CCN(c3ccc(C(N)=NCC(C)CC)cc3)CC2)cc1 (centres undefined) | SF-295 CNS | False |
| CC[N-]c1nnnn1CC.[Au+].c1ccc([PH+](c2ccccc2)c2ccccc2)cc1 | SF-295 CNS | False |
| COC(=O)[C@]12CC[C@@H](C)[C@H](C)[C@@H]1C1=CC[C@@H]3[C@@]4(C)C[C@@H](OC(C)=O)[C@H](O)[C@@](C)(CO)[C@@H]4[C@H](O)C[C@@]3(C)[C@]1(C)CC2 | SF-295 CNS | False |
| CC[O-].CC[O-].CN(C)c1ccc([O-])cc1.CN(C)c1ccc([O-])cc1.[Ti+4] | SF-295 CNS | False |
| COc1cc2nccc(Oc3ccc(NC(=O)C4(C(=O)Nc5ccc(F)cc5)CC4)cc3)c2cc1OC(=O)c1ccc(N)cc1 | SF-295 CNS | True |
| CCCCCCCC/C(=C\C1=C(C)C(=O)C(OC)=C(OC)C1=O)C(=O)O | SF-295 CNS | False |
| O=c1[nH]nc(-c2nn(-c3ccc(Cl)cc3)cc2O)o1 | SF-295 CNS | True |
| COc1ccc(CCc2nc3cc(-c4c(C)noc4C)ccc3n2CCN2CCOCC2)cc1 | SF-295 CNS | False |
| CCCCCCCCn1ccc2cc(NC(=O)Cn3cc(CN4CCN(CC)CC4)nn3)ccc21 | SF-295 CNS | False |
| Nc1c(C(=O)N/N=C/c2ccco2)cnn1-c1ccnc2c(C(F)(F)F)cccc12 | SF-295 CNS | False |
| COc1ccc(/C=C(/C(=O)N2CCCCC2)c2cc(OC)c(OC)c(OC)c2)cc1 | SF-295 CNS | True |
